These entries and their values trace back to patent US7906540B2.

Hi there, I'd appreciate the recorded melting point for every entry that follows.
Structures can show the parent of a compound that is named as a salt.

Exercise: For the compound shown here, Cn1c(CCc2ccc(Br)c(F)c2Oc2cc(Cl)cc(C#N)c2)n[nH]c1=O , give the reported melting point.
Solution: 212.4 to 214.2 °C

Exercise: Consider next the compound Cn1c(CCc2ccc(Br)c(Oc3cc(Cl)cc(C#N)c3)c2F)n[nH]c1=O in the same way.
Solution: 186 to 187 °C

Exercise: Request: Cn1c(COc2ccc(Br)c(F)c2Oc2cc(Cl)cc(C#N)c2)n[nH]c1=O
Solution: 192.5 to 193 °C

Exercise: Another: Cn1c(COc2ccc(Br)c(Oc3cc(Cl)cc(C#N)c3)c2)n[nH]c1=O
Solution: 95.2 to 100.7 °C

Exercise: Then this compound: Cn1c(COc2ccc(Br)c(F)c2Oc2cc(C#N)cc(CC(F)(F)F)c2)n[nH]c1=O
Solution: 197.1 to 202.1 °C

Exercise: Here is the next compound: Cn1c(COc2ccc(Cl)c(Oc3cc(C#N)cc(C(F)F)c3)c2F)n[nH]c1=O
Solution: 184.5 to 185.3 °C

Exercise: Repeat with CCc1ccc(OCc2n[nH]c(=O)n2C)c(F)c1Oc1cc(Cl)cc(C#N)c1
Solution: 179 to 180 °C

Exercise: Thanks! And CCc1ccc(OCc2n[nH]c(=O)n2C)c(Oc2cc(C#N)cc(C(F)F)c2)c1F ?
Solution: 160 to 161 °C

Exercise: Please do the same for CCc1cc(C#N)cc(Oc2c(OCc3n[nH]c(=O)n3C)ccc(CC)c2F)c1 as well.
Solution: 164 to 166 °C

Exercise: Moving on to the next compound: Cn1c(COc2ccc(Cl)cc2Oc2cc(Cl)cc(C#N)c2)n[nH]c1=O
Solution: 176 to 177 °C

Exercise: Next up: Cn1c(COc2ccc(Cl)c(Oc3cc(Cl)cc(C#N)c3)c2Cl)n[nH]c1=O
Solution: 224.4 to 225.6 °C

Exercise: Do the same for Cn1c(COc2ccc(Cl)cc2C(=O)c2cc(Cl)cc(C#N)c2)n[nH]c1=O please
Solution: 210 to 213.9 °C

Exercise: Also, Cn1c(COc2ccc(Cl)c(Oc3cc(Cl)cc(C#N)c3)c2F)n[nH]c1=O (as salt: salt) [Compound I-2, formate salt] please.
Solution: 221 to 225 °C

Exercise: Repeat for the following compound: Cn1c(COc2ccc(Br)c(F)c2Oc2cc(C#N)cc(C#N)c2)n[nH]c1=O
Solution: 205.5 to 207 °C

Exercise: // repeat for CCc1ccc(OCc2n[nH]c(=O)n2C)c(Oc2cc(C#N)cc(C3CC3)c2)c1F and report
Solution: 166 to 168 °C

Exercise: And Cn1c(COc2ccc(Br)c(Oc3cc(C#N)cc(C(F)F)c3)c2F)n[nH]c1=O (as salt: salt) [Compound I-4] ?
Solution: 199.2 to 201 °C

Exercise: Same again, this time with Cn1c(COc2ccc(Br)c(F)c2Oc2cc(C#N)cc(C(F)F)c2)n[nH]c1=O
Solution: 193 to 194 °C
